methodDescription: chemical genetic growth profiling, strain panel (AID 1159580);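 also: tested at 20 µM; growth read once vehicle control cultures reached saturation at 30 °C; lower values mean less growth of the strain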
particulars: S. cerevisiae deletion strains, growth OD, locus YDR297W, strain sur2
Among all 5,500 compounds or so, about 2,000 (36%) were called active. Not shown: some 18% with an inconclusive outcome. Rule as the data show it: active = normalized growth mostly below about 0.91 (no sharp cut-off); inconclusive = no clear call, values can overlap the other calls; inactive = mostly above about 0.92. The list shows a part of the results.
# valid calls are active, inactive; nothing else

As a guide, the following entries are already answered.
| molecule | labelValue |
| --- | --- |
| O=P1(N(CCCl)CCCl)NCCCO1 (stereo not given) | inactive |
| CS(=O)(=O)c1ccc([C@@H](O)[C@@H](CO)NC(=O)C(Cl)Cl)cc1 | inactive |
| CC(C)=CCc1c2c(c3occ(-c4ccc(O)cc4)c(=O)c3c1O)C=CC(C)(C)O2 | active |
| CC(=O)O[C@@H]1C=C[C@@]2(C)C(C[C@@H](OC(C)=O)[C@@]3(C)C4=CC(=O)O[C@@H](c5ccoc5)[C@]4(C)CCC23)C1(C)C (stereo not given in full) | inactive |
| CN[C@@H]1[C@H](O)[C@H](NC)[C@H]2O[C@@]3(O)C(=O)C[C@@H](C)O[C@H]3O[C@@H]2[C@H]1O | inactive |

[ask] Recorded test call requested for CC(=O)Oc1ccc(/C=C/c2cc(OC(C)=O)cc(OC(C)=O)c2)cc1
[reply] inactive

[ask] Recorded test call requested for COc1cc(C(C)=O)cc(OC)c1O
[reply] inactive

[ask] Recorded test call requested for CN(C)[C@@H]1C(=O)C(C(=O)NCN2CCCC2)=C(O)[C@@]2(O)C(=O)C3=C(O)c4c(O)cccc4[C@@](C)(O)[C@H]3C[C@@H]12
[reply] inactive

[ask] Recorded test call requested for CC(CCC(=O)O)[C@H]1CCC2C3C(=O)C[C@@H]4CC(=O)CC[C@]4(C)C3CC(=O)[C@@]21C (stereo not given in full)
[reply] inactive

[ask] Recorded test call requested for NCC(N)C(=O)c1ccccc1 (stereo not given)
[reply] inactive

[ask] Recorded test call requested for CCCc1cc(=O)[nH]c(=S)[nH]1
[reply] inactive

[ask] Recorded test call requested for COC(=O)c1c(OC)cc2c(c1C)Oc1c(Cl)c(O)c(Cl)c(C)c1C(=O)O2
[reply] inactive

[ask] Recorded test call requested for Cc1cc(=O)[nH]c(=S)[nH]1
[reply] inactive

[ask] Recorded test call requested for NCC(=O)c1ccccc1
[reply] inactive

[ask] Recorded test call requested for CC(=O)c1cc(CC=C(C)C)c(O)c(CC=C(C)C)c1
[reply] inactive

[ask] Recorded test call requested for C[C@H]1c2cccc(O)c2C(O)=C2C(=O)[C@]3(O)C(O)=C(C(N)=O)C(=O)[C@@H](N(C)C)[C@@H]3[C@@H](O)[C@@H]21
[reply] inactive

[ask] Recorded test call requested for CCOC(=O)NNc1nncc2ccccc12
[reply] inactive

[ask] Recorded test call requested for C/C=C\C1=C(C(=O)O)N2C(=O)C(NC(=O)C(N)c3ccc(O)cc3)C2SC1 (stereo not given)
[reply] inactive

[ask] Recorded test call requested for NC(Cn1ccc(=O)c(O)c1)C(=O)O (stereo not given)
[reply] inactive

[ask] Recorded test call requested for CC(=O)O[C@@H]1CC2C(C)(C)C(=O)C=C[C@]2(C)C2CC[C@]3(C)C(=CC(=O)O[C@H]3c3ccoc3)[C@@]21C (stereo not given in full)
[reply] inactive

[ask] Recorded test call requested for COC(=O)/C(=C1\OC(=O)C(c2ccccc2)=C1O)c1ccccc1
[reply] inactive

[ask] Recorded test call requested for CC(=O)O[C@H]1CC[C@@]2(C)C(=CC(=O)C3C4CCC(C(C)CCCC(C)C)[C@@]4(C)CCC32)C1 (stereo not given in full)
[reply] inactive

Values compiled from PubChem BioAssay AID1159580.
